target.or.system: Cystic fibrosis transmembrane conductance regulator (Homo sapiens) (UniProt P13569)
Sequence (P13569 whole entry, looked up, stated change not applied): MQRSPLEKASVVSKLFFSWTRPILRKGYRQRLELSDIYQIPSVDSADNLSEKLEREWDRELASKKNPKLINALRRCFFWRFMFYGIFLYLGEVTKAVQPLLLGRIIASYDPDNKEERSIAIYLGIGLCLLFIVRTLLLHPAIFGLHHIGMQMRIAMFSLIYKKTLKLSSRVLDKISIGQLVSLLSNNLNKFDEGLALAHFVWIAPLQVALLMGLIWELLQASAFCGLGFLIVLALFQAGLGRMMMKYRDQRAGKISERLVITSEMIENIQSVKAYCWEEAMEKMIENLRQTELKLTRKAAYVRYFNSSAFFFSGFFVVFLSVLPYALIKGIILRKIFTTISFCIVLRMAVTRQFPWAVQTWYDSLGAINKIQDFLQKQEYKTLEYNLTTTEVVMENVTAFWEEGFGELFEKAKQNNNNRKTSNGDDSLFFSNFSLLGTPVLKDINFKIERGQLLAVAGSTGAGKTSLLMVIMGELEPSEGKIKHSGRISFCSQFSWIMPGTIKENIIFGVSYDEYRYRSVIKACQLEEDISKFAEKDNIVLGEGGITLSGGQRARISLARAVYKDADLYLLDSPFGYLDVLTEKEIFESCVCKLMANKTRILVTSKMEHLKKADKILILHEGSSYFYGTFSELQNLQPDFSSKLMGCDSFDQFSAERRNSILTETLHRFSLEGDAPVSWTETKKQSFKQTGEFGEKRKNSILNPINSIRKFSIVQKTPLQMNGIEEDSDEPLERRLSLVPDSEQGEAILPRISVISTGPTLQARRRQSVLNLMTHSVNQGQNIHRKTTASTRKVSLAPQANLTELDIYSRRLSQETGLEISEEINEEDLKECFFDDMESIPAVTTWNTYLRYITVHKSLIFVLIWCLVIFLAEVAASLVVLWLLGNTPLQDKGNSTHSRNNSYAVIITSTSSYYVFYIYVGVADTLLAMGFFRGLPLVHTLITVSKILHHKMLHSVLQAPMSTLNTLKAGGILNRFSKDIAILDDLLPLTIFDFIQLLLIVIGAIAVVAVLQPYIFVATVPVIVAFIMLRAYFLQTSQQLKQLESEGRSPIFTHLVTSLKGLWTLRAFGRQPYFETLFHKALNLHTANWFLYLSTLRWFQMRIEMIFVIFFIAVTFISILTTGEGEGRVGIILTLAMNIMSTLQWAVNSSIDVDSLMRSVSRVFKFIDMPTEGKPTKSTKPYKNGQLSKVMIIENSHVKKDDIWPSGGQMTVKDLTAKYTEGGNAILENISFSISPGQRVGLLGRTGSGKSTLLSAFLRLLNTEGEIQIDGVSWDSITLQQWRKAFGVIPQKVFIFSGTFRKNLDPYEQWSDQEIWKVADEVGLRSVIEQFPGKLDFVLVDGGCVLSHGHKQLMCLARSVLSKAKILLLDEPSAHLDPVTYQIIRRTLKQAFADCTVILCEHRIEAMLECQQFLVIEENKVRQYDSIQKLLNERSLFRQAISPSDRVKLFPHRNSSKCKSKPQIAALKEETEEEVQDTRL
measurement.description: F508del-CFTR plasma membrane relocalization enhancers – imaging, HeLa, high-content microscopy, immunofluorescence, primary screen (AID 1224864);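 also: HeLa cells stably expressing F508del-CFTR stained with 3G11 antibody against NBD1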;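 as to plasma membrane CFTR intensity: mean immunofluorescence in a thin cell-margin band taken as plasma membrane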
reported.conditions: PM immunofluorescence imaging, 24 h, at 10 µM, stronger effect = higher value, relative to vehicle wells set at 100
The whole screen tested about 2,000 compounds, of which about 20 (1%) were called active. This excerpt belongs to a sample that is enriched for actives.
# plasma membrane CFTR intensity per record follows
Supply the numeric figure in %, leaving out any unit text.

1) COc1ccc(/C=N\NC(=O)CCc2c(C)n[nH]c2C)c(OC)c1OC	82

[in] # return plasma membrane CFTR intensity of CC(=O)N1c2ccccc2C(C)=CC1(C)C (system: Cystic fibrosis transmembrane conductance regulator (Homo sapiens) (UniProt P13569))
[out] 80

[in] # return plasma membrane CFTR intensity of N#C/C(=C/c1ccccc1)C(=O)NCc1ccccc1 (system: Cystic fibrosis transmembrane conductance regulator (Homo sapiens) (UniProt P13569))
[out] 124

[in] # return plasma membrane CFTR intensity of S=C(NCc1ccccc1)NCc1cccc(CNC(=S)NCc2ccccc2)c1 (system: Cystic fibrosis transmembrane conductance regulator (Homo sapiens) (UniProt P13569))
[out] 79

----------
# total CFTR intensity per record follows
target.or.system: Cystic fibrosis transmembrane conductance regulator (Homo sapiens) (UniProt P13569)
measurement.description: F508del-CFTR plasma membrane relocalization enhancers – imaging, HeLa, high-content microscopy, immunofluorescence, primary screen (AID 1224864);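 also: HeLa cells stably expressing F508del-CFTR stained with 3G11 antibody against NBD1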
reported.conditions: PM immunofluorescence imaging, 24 h, at 10 µM, stronger effect = higher value, relative to vehicle wells set at 100; measured here: total cellular F508del-CFTR signal
Among all 2,000 compounds or so, about 20 (1%) were called active. This excerpt belongs to a sample that is enriched for actives.
Supply the numeric figure in %, leaving out any unit text.

Some solved cases for reference:
1. CC(NC(=O)c1ccc(OC2CCN(Cc3ccccn3)CC2)cc1)c1ccccc1 (stereo unspecified)	66
2. CC12CCC(C(=O)NNc3ccccc3)(C(=O)C1=O)C2(C)C (stereo unspecified)	88
3. CC(NCCc1ccc(O)cc1)C(O)c1ccc(O)cc1 (stereo unspecified)	96

[in] Input CCOCc1cc(C)[nH]c(=O)c1C#N , output reported total CFTR intensity.
[out] 83

[in] Input CC(COc1ccccc1)N(CCCl)Cc1ccccc1 (stereo unspecified) , output reported total CFTR intensity.
[out] 80

[in] Input CN(C)c1cc(NC(=O)CN2CCOCC2)c2ccccc2n1 , output reported total CFTR intensity.
[out] 88

----------
# plasma membrane CFTR intensity per record follows
target.or.system: Cystic fibrosis transmembrane conductance regulator (Homo sapiens)
measurement.description: F508del-CFTR plasma membrane relocalization enhancers – imaging, HeLa, high-content microscopy, immunofluorescence, primary screen (AID 1224864);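 also: HeLa cells stably expressing F508del-CFTR stained with 3G11 antibody against NBD1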;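 as to plasma membrane CFTR intensity: mean immunofluorescence in a thin cell-margin band taken as plasma membrane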
reported.conditions: PM immunofluorescence imaging, 24 h, at 10 µM, stronger effect = higher value, relative to vehicle wells set at 100
About 20 (1%) of roughly 2,000 compounds were called active. The sample holds actives, similar compounds and a random draw of the others, so the mix is not that of the screen.
Supply the numeric figure in %, leaving out any unit text.

1) Cc1ccc2c(c1)C(C)(C)[C@]1(C)NC(=O)CCN21	94
2) CC(C)(CO)CNC(=O)CC1C(=O)NCCN1CC(c1ccccc1)c1ccccc1 (stereo unspecified)	85
3) Cc1cc(C)cc(Nc2nc3c([nH]2)c(=O)n(C)c(=O)n3C)c1	98
4) Cc1coc2cc3oc(=O)c(CCC(=O)O)c(C)c3cc12	105

[in] Input COc1ccc(/C=C\c2cc(OC)c(OC)cc2CC[N+](C)(C)C)cc1OC , output reported plasma membrane CFTR intensity.
[out] 81

[in] Input Cc1ccc([N+](=O)[O-])cc1NC1OC(CO)C(O)C1O (stereo unspecified) , output reported plasma membrane CFTR intensity.
[out] 85
